- ASSAY PROCEDURE: Inhibition of porcine cytosolic phospholipase A2 alpha using SAPC and 2-dioleoyl-sn-glycerol as substrate incubated for 60 mins by HPLC-UV analysis
- Parameters: species or system Sus scrofa
Each entry falls into one class according to its IC50; the ranges are low value (below 20 nM), medium value (20 nM to below 50 nM), high value (50 nM or more)

Look over these answered cases.
CC(C)C(=O)c1cn(CC(=O)COc2ccc(Oc3ccc(C(F)(F)F)cc3)cc2)cc1CCC(=O)O ... high value
CCCCCCCCc1ccc(OCC(=O)Cn2cc(CC(=O)O)c(C(=O)C(C)C)c2)cc1 ... medium value
Cc1noc(-c2cn(CC(=O)C(C)Oc3ccc(Oc4ccc(F)cc4)cc3)cc2CCC(=O)O)n1 (stereo not given) ... medium value
CCCCCCCCCCOc1ccc(OCC(=O)COc2ccc(C(=O)O)cc2)cc1 ... low value
CCCCCCCCc1ccc(OCC(=O)Cn2cc(CCC(=O)O)c(-c3nc(C)no3)c2)cc1 ... low value
CC(C)C(=O)c1cn(CC(=O)COc2ccc(-c3ccc(C(F)(F)F)cc3)cc2)cc1CCC(=O)O ... high value
CCCCCCCCc1ccc(OCC(=O)Cn2cc(CCCC(=O)O)c(C(=O)C(C)C)c2)cc1 ... high value
CCCCCCCCc1ccc(OCC(=O)Cn2cc(C(=O)C(C)C)cc2CCCC(=O)O)cc1 ... high value
CC(C)C(=O)c1cn(CC(=O)COc2ccc3c(ccn3-c3ccc(F)cc3)c2)cc1CCC(=O)O ... high value
CCCCCCCCc1ccc(OCC(=O)Cn2cc(CCC(=O)O)c(C(=O)C(C)C)c2)cc1 ... high value

Class? Entry: CCCCCCCCc1ccc(OCC(=O)Cn2cc(C(=O)C(C)C)cc2CCC(=O)O)cc1
high value

What about CCCCCCCCc1ccc(OC(C)C(=O)Cn2cc(CCC(=O)O)c(-c3nc(C)no3)c2)cc1 (stereo not given) ?
low value

What about CCCCCCCCc1ccc(OCC(=O)Cn2c(C)c(CCC(=O)O)c(C(=O)C(C)C)c2C)cc1 ?
high value
